# Assay Protocol: physchem
# Condition Set: buffer
Property: half-life at […] (days)
The figure you give is taken to be in days; do not add the unit.

**Q:** Look up half-life at […] of CCc1cnc(Nc2nc(Cl)ccc2[N+](=O)[O-])nc1N1CCN(Cc2nc3cc(C(F)(F)F)ccc3[nH]2)CC1 [Compound 2] and report it.
**A:** 2.29

----------
# Assay Protocol: Aqueous degradation at pH 10.2
# Type: physicochemical
# Condition Set: sodium tetraborate buffer (28 mM), no nucleophile, read-out: t1/2 of aqueous degradation (converted)
Property: half-life (h)
The figure you give is taken to be in h; do not add the unit.

**Q:** Look up half-life of CCc1cnc(Nc2nc(Cl)ccc2[N+](=O)[O-])nc1N1CCN(Cc2nc3cc(C(F)(F)F)ccc3[nH]2)CC1 and report it.
**A:** 139

----------
# Test Target: FGFR4 (Homo sapiens, UniProt P22455)
# Construct: purchased Reaction Biology Corp
# Sequence (P22455 22-802): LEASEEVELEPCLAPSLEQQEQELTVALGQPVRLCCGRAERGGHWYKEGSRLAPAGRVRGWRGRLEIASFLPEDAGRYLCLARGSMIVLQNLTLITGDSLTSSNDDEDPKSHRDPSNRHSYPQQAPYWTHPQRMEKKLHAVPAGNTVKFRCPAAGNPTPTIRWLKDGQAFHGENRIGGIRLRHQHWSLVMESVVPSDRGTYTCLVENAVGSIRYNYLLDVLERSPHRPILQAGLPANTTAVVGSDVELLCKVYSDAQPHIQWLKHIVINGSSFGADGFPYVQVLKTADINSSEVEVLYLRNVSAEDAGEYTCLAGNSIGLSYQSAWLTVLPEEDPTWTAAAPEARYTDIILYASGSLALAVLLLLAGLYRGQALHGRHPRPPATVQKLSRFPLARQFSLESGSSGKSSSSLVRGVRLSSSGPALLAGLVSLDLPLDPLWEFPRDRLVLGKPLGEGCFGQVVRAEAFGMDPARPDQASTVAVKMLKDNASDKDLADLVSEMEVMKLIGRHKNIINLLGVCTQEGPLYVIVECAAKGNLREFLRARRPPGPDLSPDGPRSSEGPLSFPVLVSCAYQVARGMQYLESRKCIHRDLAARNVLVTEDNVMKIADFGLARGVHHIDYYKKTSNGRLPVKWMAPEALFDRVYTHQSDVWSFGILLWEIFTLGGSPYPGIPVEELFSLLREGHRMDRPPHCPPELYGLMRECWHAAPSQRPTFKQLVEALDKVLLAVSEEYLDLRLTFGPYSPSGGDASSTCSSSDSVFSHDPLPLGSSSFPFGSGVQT
# Assay Protocol: HotSpot kinase assay (Reaction Biology)
# Format: biochemical
# Condition Set: five-point singlicate
Property: IC50 (µM)
The figure you give is taken to be in µM; do not add the unit.

**Q:** Look up IC50 of CCc1cnc(Nc2nc(Cl)ccc2[N+](=O)[O-])nc1N1CCN(Cc2nc3cc(C(F)(F)F)ccc3[nH]2)CC1 [Compound 2] and report it.
**A:** 0.216

----------
# Test Target: S6K2 (Homo sapiens)
# Sequence (Q9UBS0 whole entry): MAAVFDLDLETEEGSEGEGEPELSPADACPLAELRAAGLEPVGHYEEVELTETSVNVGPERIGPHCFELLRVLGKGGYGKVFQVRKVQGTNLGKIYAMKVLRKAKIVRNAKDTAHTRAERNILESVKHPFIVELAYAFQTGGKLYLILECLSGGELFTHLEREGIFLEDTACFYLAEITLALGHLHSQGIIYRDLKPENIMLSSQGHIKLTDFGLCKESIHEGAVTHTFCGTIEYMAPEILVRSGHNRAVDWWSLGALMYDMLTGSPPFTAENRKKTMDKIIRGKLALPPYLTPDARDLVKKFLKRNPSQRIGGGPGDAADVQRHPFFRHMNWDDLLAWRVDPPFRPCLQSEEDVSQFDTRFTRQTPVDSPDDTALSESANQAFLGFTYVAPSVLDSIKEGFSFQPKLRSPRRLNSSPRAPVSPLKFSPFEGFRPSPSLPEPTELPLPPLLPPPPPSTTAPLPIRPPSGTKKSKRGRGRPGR
Property: IC50 (nM)
The figure you give is taken to be in nM; do not add the unit.

**Q:** # return IC50 for CCc1cnc(Nc2nc(Cl)ccc2[N+](=O)[O-])nc1N1CCN(Cc2nc3cc(C(F)(F)F)ccc3[nH]2)CC1 , test system: S6K2 (Homo sapiens)
**A:** 22
